STUDY_SYSTEM: pooled human IgG (human IgG1,2,3 and 4)
PROPERTY_NAME: Enzyme Activity Endpoint Assay: scIgG (ng/µL)

INSERT INTO results (protein, endpoint_result) VALUES
  ('PRT-468 (protein) MITSVWTKGVTPPTDFIKGEDVFHAPYKAGQGWYDITKAFDGGDDLLCGAATAGNMLHWWFDQNKDQIERYLKEHPEKQKINFNGEQMFDVKEAIDTKDSQTNSELFNYFKEKAFPYLSTKHLGVFPDHVLDMFINGYRLSLTNHGPTPVKEGSKDPRGGIFDAVFTRGDQSKLLTSRHDLKNKTLNEISQLIKQELTEGKALGLSHTYANVRINHVINLWGADFDAEGNLEAIYVTDSDSNASIGMKKYFVGVNSAGKVAISAKEIKEDNIGAQVLGLFTLSTGQDIWNQTNLEHHHHHH', 66),
  ('PRT-460 (protein) MVTSVWTKGVTPPTDFIKGEDVFHAPYKAGQGWYDITKTFNGKDDLLCGAATAGNMLHWWFDQNKDQIERYLKEHPEKQKINFNGEQMFDVKEAIDTKDSQTDSKLFEYFKEKAFPYLSTKHLGVFPDHVLDMFINGYRLSLTNHGPTPVKEGSKDPRGGIFDAVFTRGDQSKLLTSRHDLKNKTLKEISDLIKQELTEGKALGLSHTYANVRINHVINLWGADFDSEGNLKAIYVTDSDSNASIGMKKYFVGVNSAGKVAISAKEIKEDNIGAQVLGLFTLSTGQDIWNQTNLEHHHHHH', 64),
  ('PRT-458 (protein) MVTSVWTKGVTPPTDFIKGEDVFHAPYKAGQGWYDITKTFNGKDDLLCGAATAGNMLHWWFDQNKDQIERYLKEHPEKQKINFNGEQMFDVKEAIDTKDSQTDSKLFEYFKEKAFPYLSTKHLGVFPDHVLDMFINGYRLSLTNHGPTPVKEGSKDPRGGIFDAVFTRGDQSKLLTSRHDFKEKTLKEISDLIKQELTEGKALGLSHTYANVRINHVINLWGADFDSEGNLKAIYVTDSDSNASIGMKKYFVGVNSAGKVAISAKEIKEDNIGAQVLGLFTLSTGQDIWNQTNLEHHHHHH', 226),
  ('PRT-180 (protein) MANQEIRYSEVTPYHVTSVWTKGVTPPANFTQGEDVFHAPYVANQGWYDITKTFNGKDDLLCGAATAGNMLHWWFDQNKDQIKRYLEEHPEKQKINFNGEQMFDVKEAIDTKNHQLDSKLFEYFKEKAFPYLSTKHLGVFPDHVIDMFINGYRLSLTNTQSTDVNEGSKDPRGGIFDAVFTRGDQSKLLTSRHDFKEKNLKEISDLIKKELTEGKALGLSHTYANVRINHVINLWGADFDSNGNLKAIYVTDSDSNASIGMKKYFVGVNSAGKVAISAKEIKEDNIGAQVLGLFTLSTGQDSWNQTN', 0);
